B1: FBXO39 (parent)
chain: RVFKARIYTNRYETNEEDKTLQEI

variants of: B1; assay: protein stability index of a GFP-peptide fusion (GPS, HEK-293T) (PSI 1-6); higher = more stable; conditions: c terminus: a fixed tail appended;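 further: lentivirally expressed fusions sorted by FACS into six bins by GFP to DsRed ratio, PSI derived from sequencing read proportions per bin multiplied by bin number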
MEASUREMENT NAME: protein stability index
Please give the numeric answer without any surrounding text.

Below, 3 variants whose answers are already recorded.
• R11M = 2.93
• T14R = 2.36
• T14V = 2.06

The value of protein stability index measured for the variant T14W turned out to be 1.66

The value of protein stability index measured for the variant K4S turned out to be 3.6

The value of protein stability index measured for the variant I7R turned out to be 2.43

The value of protein stability index measured for the variant K19W turned out to be 2.54

The value of protein stability index measured for the variant R11P turned out to be 3.36

The value of protein stability index measured for the variant K4E turned out to be 3.81

The value of protein stability index measured for the variant E13G turned out to be 2.81

The value of protein stability index measured for the variant K19H turned out to be 2.92
